Give log K for every item shown.
# assayComment: Lipophilicity, log K of the compound
# Type: physicochemical
# protocolConditions: octanol/water
Give bare numbers.

structureSmilesString | measuredProperty | numericResult
COc1ccccc1/C=C/c1ccc2cccc(C(=O)O)c2n1 | log K | 1.1922

Provide log K for all items below, preserving their order.
1. Cc1ccc2c([N+](=O)[O-])cc([N+](=O)[O-])c(O)c2n1
2. O=[N+]([O-])c1cc([N+](=O)[O-])c2cccnc2c1O
3. Oc1cccc2ccc(/C=C/c3ccc(Cl)cc3)nc12

# output
1: 0.7292; 2: 0.7154; 3: 1.5558

The origin of these recorded values is ChEMBL document CHEMBL1146320.
